Taken from PubChem BioAssay.

# study-target: Pro-neuregulin-1, membrane-bound isoform (Homo sapiens)
# experimental-details: NRG1 binders on small-molecule microarrays, primary screen, psychiatric disease protein project, biochemical, small-molecule microarray, fluorescence 635/667 (AID 1075);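 note: score combines 667 nm spot fluorescence with signal to noise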
# test-parameters: NRG1 binding, 635 nm fluorescence, higher = more signal
For each entry below, report its composite z-score value.
Answers are plain numbers.

Reference set (2 entries):
smiles-structure	study-target	composite z-score
COCCOC(=O)N1C(=O)[C@@]2(c3cc(C#CCCO)ccc31)[C@H](c1ccccc1OCCO)N1[C@H](c3ccccc3)[C@H](c3ccccc3)OC(=O)[C@H]1[C@@H]2C(=O)NC[C@H](O)c1ccccc1	Pro-neuregulin-1, membrane-bound isoform (Homo sapiens)	1.12
COCCOC(=O)N1C(=O)[C@@]2(c3cc(C#CC4(O)CCCCCC4)ccc31)[C@H](c1ccc(O)cc1)N1[C@H](c3ccccc3)[C@H](c3ccccc3)OC(=O)[C@H]1[C@@H]2C(N)=O	Pro-neuregulin-1, membrane-bound isoform (Homo sapiens)	1.1

Here's the next entry for you.
Exercise: Check Pro-neuregulin-1, membrane-bound isoform (Homo sapiens) data and give composite z-score for COc1ccc(C(=O)Nc2cccc(CN3C(=O)[C@@]4(O[C@@H](CCO)[C@H]([Si](C)(C)c5ccc(OC)cc5)[C@H]4C)c4ccccc43)c2)cc1 .
Key: -0.0498

----------
# experimental-details: small-molecule binders of probe aInhba, primary screen, biochemical, small-molecule microarray, 635/667 nm fluorescence (AID 1148);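 note: score merges 667nm spot fluorescence with signal-to-noise for antibody binding to printed compounds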
# test-parameters: higher = more signal
Lab note: anything with composite z-score at or over 0.02 counts as Y; the rest go in N.

smiles-structure	label
NCCCCCCNC(=O)[C@@H]1C[C@@H]2C(=O)N[C@@H](Cc3ccccc3)C(=O)N2[C@@H]1c1ccc(O)cc1	Y

Exercise: Exam item: decide whether the reported composite z-score for CC(C)(C)OC(=O)CC[C@]1(C(=O)NCc2ccccc2)COC(c2ccc(OCCCO)cc2)=N1 is at least 0.02.
Key: N

Exercise: Exam item: decide whether the reported composite z-score for O=C(NCC(F)(F)F)[C@@H]1c2ccccc2C(=O)N(C2Cc3ccccc3C2)[C@H]1c1ccc(CO)cc1 is at least 0.02.
Key: Y

Exercise: Exam item: decide whether the reported composite z-score for CC(C)C(=C=CC[C@H](O)c1ccc(OCCO)cc1)C[C@H](O)COCc1ccccc1 is at least 0.02.
Key: N

Exercise: Exam item: decide whether the reported composite z-score for COc1ccc(C#Cc2ccc3c(c2)[C@]2(C(=O)N3)[C@H](c3ccc(O)cc3)N3[C@H](c4ccccc4)[C@H](c4ccccc4)OC(=O)[C@H]3[C@@H]2C(=O)N2CCN(c3ncccn3)CC2)cc1 is at least 0.02.
Key: Y

Exercise: Exam item: decide whether the reported composite z-score for O=C(O)[C@H]1C[C@H]2C(=O)N[C@@H](Cc3ccccc3)C(=O)N2[C@H]1c1ccc(O)cc1 is at least 0.02.
Key: Y

Exercise: Exam item: decide whether the reported composite z-score for C/C=C/[C@@H](CCn1cc(CCO[Si](C(C)C)(C(C)C)C(C)C)nn1)[Si](C)(C)c1ccc(OC)cc1 is at least 0.02.
Key: N

----------
For each entry below, report its z-score value.
# study-target: Luciferin 4-monooxygenase (Photinus pyralis)
# experimental-details: firefly luciferase enzyme inhibitors, primary screen, biochemical, luminescence, purified enzyme, 2006 set (AID 1141);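 note: cell-free assay with purified firefly luciferase at 100 ng per well in PBS; test concentration not given here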
# test-parameters: SteadyGlo luminescence, 30 min, higher = more signal, called active from +8 up or from −8 down
Answers are plain numbers.

Reference set (3 entries):
compound	result-type	observed-measurement
COC(=O)C(CC#Cc1ccc2c(c1)[C@]1(C(=O)N2)[C@H](C(=O)O)[C@H]2C(=O)O[C@H](c3ccccc3)[C@H](c3ccccc3)N2[C@@H]1c1ccc(OCCO)cc1)C(=O)OC	z-score	-4.03
CO[C@H]1O[C@H](CO)[C@@H](OC(=O)CCc2ccccc2)[C@@H]2OC(=O)[C@H](Cc3ccccc3)C/C=C/C[C@@H](Cc3ccccc3)C(=O)O[C@@H]12	z-score	-1.21
O=C(NC1CC1)[C@@H]1c2ccccc2C(=O)N(Cc2ccccc2C(F)(F)F)[C@H]1c1ccc(CO)cc1	z-score	-0.945

Give z-score for each listed item.
1. COc1ccc(/C=C/C(=O)c2cccc(OCC(=O)OC(C)(C)C)c2)cc1
2. COCCCNC(=O)[C@@]1(C)c2ccccc2C(=O)N(Cc2cc(F)cc(C(F)(F)F)c2)[C@H]1c1ccc(CO)cc1
3. CC(C)C[C@@H]1NC(=O)[C@@]23C(=O)N[C@@H](Cc4ccccc4)C2[C@H](C)[C@@]2(C)O[C@H]2C3/C=C/C/C=C\CNC(=O)[C@H](Cc2ccccc2)NC1=O (some centres not stated)

Key:
1: -2.64; 2: -1.13; 3: -0.755
